For each entry below, report its IC50 value.
target: CXCR4 receptor (Homo sapiens); construct: 50 μL of Jurkat human T-cell leukemia cells (6×10^6 cells/mL) suspended in buffer; endogenous in cells; host or cells: Jurkat human T-cell leukemia cells; test: Inhibition of 125I-CXCL12 binding to CXCR4 receptor on Jurkat cells; settings: Table 1, 125I-CXCL12, 1 hour at room temperature, compounds as acetate salt, read-out: IC50 (nM), inhibitory activity against CXCL12 binding to CXCR4 receptor
Sequence (P61073 whole entry): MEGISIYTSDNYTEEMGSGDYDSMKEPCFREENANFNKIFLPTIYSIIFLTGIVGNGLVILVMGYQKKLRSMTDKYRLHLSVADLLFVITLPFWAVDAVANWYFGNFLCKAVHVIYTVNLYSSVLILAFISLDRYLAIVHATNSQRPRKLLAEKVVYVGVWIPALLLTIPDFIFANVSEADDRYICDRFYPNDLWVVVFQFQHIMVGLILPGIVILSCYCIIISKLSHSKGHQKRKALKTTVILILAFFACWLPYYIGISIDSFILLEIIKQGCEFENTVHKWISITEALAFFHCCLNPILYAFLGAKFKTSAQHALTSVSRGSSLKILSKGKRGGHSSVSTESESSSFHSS
Bridge positions count the residues as written; N and C are the ends. Square brackets hold non-standard residues; d marks the D form. Peptide text beside a SMILES is read from it. 2Nal = N[C@@H](Cc1ccc2ccccc2c1)C(=O)O; Cit = NC(=O)NCCC[C@H](N)C(=O)O; Ava = NCCCCC(=O)O
Answers are plain numbers, in nM.

compound	unitString	IC50
N=C(N)NCCC[C@H](NC(=O)[C@@H]1CSSC[C@H](NC(=O)[C@H](Cc2ccc3ccccc3c2)NC(=O)[C@H](CCCNC(=N)N)NC(=O)CCCCN)C(=O)N[C@@H](Cc2ccc(O)cc2)C(=O)N[C@@H](CCCNC(N)=O)C(=O)N[C@@H](CCCCN)C(=O)N[C@H](CCC(=O)O)C(=O)N2CCC[C@H]2C(=O)N[C@@H](Cc2ccc(O)cc2)C(=O)N[C@@H](CCCNC(=N)N)C(=O)N[C@@H](CCCNC(N)=O)C(=O)N1)C(N)=O [TF7] (H-[Ava]R[2Nal]CY[Cit]K[dE]PYR[Cit]CR-NH2; disulfide 4-13)	nM	5.7

INPUT: Please give the measured IC50 for this compound: N=C(N)NCCC[C@H](NC(=O)[C@@H]1CSSC[C@H](NC(=O)[C@H](Cc2ccc3ccccc3c2)NC(=O)[C@H](CCCNC(=N)N)NC(=O)[C@@H](N)CCCNC(=N)N)C(=O)N[C@@H](Cc2ccc(O)cc2)C(=O)N[C@H](CCC(=O)O)C(=O)N[C@@H](CCCCN)C(=O)N[C@H](CCC(=O)O)C(=O)N2CCC[C@H]2C(=O)N[C@@H](Cc2ccc(O)cc2)C(=O)N[C@@H](CCCNC(=N)N)C(=O)N[C@@H](CCCNC(N)=O)C(=O)N1)C(N)=O [TE14013] (H-RR[2Nal]CY[dE]K[dE]PYR[Cit]CR-NH2; disulfide 4-13)
OUTPUT: 9.3
